For each record, write down the corresponding log10 kcat.
B1: glmS ribozyme (parent)
chain: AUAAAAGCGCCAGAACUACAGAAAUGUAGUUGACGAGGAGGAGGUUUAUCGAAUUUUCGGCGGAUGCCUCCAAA

- Variants of: B1
- assay_comment: kcat; higher = faster cleavage; RNA array
- experimental_setup: with glucosamine-6-phosphate
This sample holds only a part of the variants without activity.
In our notation, the value equals log10 of kcat in s⁻¹.

Reported log10 kcat for U45A U65G was -2.23

Reported log10 kcat for U31G U45G was -2.62

Reported log10 kcat for C8U G51U C70U was -4.92

Reported log10 kcat for A53U C70A was -3.90

Reported log10 kcat for G29U C67U was -3.01

Reported log10 kcat for G32U U45G was -3.16

Reported log10 kcat for U31C G41A was -4.04

Reported log10 kcat for A33G C70G was -4.71

Reported log10 kcat for C16G U30C was -3.95

Reported log10 kcat for C11G U56G was -4.88

Reported log10 kcat for A39U U46G was -2.17

Reported log10 kcat for G44A U56A was -3.59

Reported log10 kcat for A6U A14G was -3.18

Reported log10 kcat for G40C A42U was -4.40

Reported log10 kcat for A39U A42U was -2.19

Reported log10 kcat for G37A A39U was -2.78

Reported log10 kcat for G13U C16G was -3.01

Reported log10 kcat for A15C G40A was -3.19

Reported log10 kcat for U47G C61U was -4.69

Reported log10 kcat for G13C U69C was -4.11

Reported log10 kcat for U31C G40U U47A was -3.84

Reported log10 kcat for G59A G66A was -3.61

Reported log10 kcat for U47G A64G C70G was -4.49

Reported log10 kcat for A52G C68U was -3.06

Reported log10 kcat for U57G C58U C70U was -4.87

Reported log10 kcat for C11U G29C was -3.74

Reported log10 kcat for A36U U69A was -4.34

Reported log10 kcat for A12C C67A was -2.33

Reported log10 kcat for A12U G60A was -4.08

Reported log10 kcat for A42U C68G was -4.76

Reported log10 kcat for A14G G32C C70U was -3.18

Reported log10 kcat for U45G A53U was -2.32

Reported log10 kcat for U30C C61G was -4.85

Reported log10 kcat for U54C A64U was -4.14

Reported log10 kcat for A15U A48U was -3.88

Reported log10 kcat for A53C C58G was -4.81

Reported log10 kcat for G29A U56A was -2.49

Reported log10 kcat for U45C C70U was -2.07

Reported log10 kcat for U31C A52G was -3.27

Reported log10 kcat for U54A G59U was -3.71
